# Tested on: 324938-238-R-J1-PDC complex spheroids viability;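 further: viability read after seven days of drug exposure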
# ASSAY COMMENT: Anticancer human tumor 324938-238-R-J1-PDC patient-derived bladder carcinoma cell line growth inhibition [CLK]; active means viability on the fitted dose curve at most 10% of control; inactive means the rest
# MEASUREMENT SETUP: second compound 0.0316 µM; first compound 3.16 µM
Hello, when you answer, please use one of the following outcomes: YES = active, NO = inactive

Record excerpt, results attached:
COc1ccc([C@@H](O)c2cc(-c3ncnc4cc(N5CCOCC5)ccc34)c(F)cc2Cl)nn1 + CNC(=O)c1ccc(Nc2nc(OC3CCCC3)c3c(-c4ccc5nc(C)oc5c4)c[nH]c3n2)c(OC)c1    NO
COc1cccc2c1C(=O)c1c(O)c3c(c(O)c1C2=O)CC(O)(C(=O)CO)CC3OC1CC(N)C(O)C(C)O1 (stereo not given) + CN1CCN(c2cc(C(=O)Nc3cc4cc(-c5cnn(C)c5)ccc4cn3)ccn2)CC1    YES
COC1C=CCC(C)C(C)S(=O)(=O)NC(=O)c2ccc3c(c2)N(CC2CCC21)CC1(CCCc2cc(Cl)ccc21)CO3 (stereo not given) + CNC(=O)c1ccc(Nc2nc(OC3CCCC3)c3c(-c4ccc5nc(C)oc5c4)c[nH]c3n2)c(OC)c1    NO

Inquiry: Each molecule tested received a call. Report the one for CCCS(=O)(=O)Nc1ccc(F)c(C(=O)c2c[nH]c3ncc(-c4ccc(Cl)cc4)cc23)c1F + CN1CCN(c2cc(C(=O)Nc3cc4cc(-c5cnn(C)c5)ccc4cn3)ccn2)CC1 .
Reply text: NO

Inquiry: What would you report for CC(Nc1ccc2c(c1)OCCn1cc(N3C(=O)OCC3C(F)F)nc1-2)C(N)=O (stereo not given) + CN1CCN(c2cc(C(=O)Nc3cc4cc(-c5cnn(C)c5)ccc4cn3)ccn2)CC1 ?
Reply text: NO

Inquiry: Same for COc1cccc2c1C(=O)c1c(O)c3c(c(O)c1C2=O)CC(O)(C(=O)CO)CC3OC1CC(N)C(O)C(C)O1 (stereo not given) + CNC(=O)c1ccc(Nc2nc(OC3CCCC3)c3c(-c4ccc5nc(C)oc5c4)c[nH]c3n2)c(OC)c1
Reply text: YES

Inquiry: Then this molecule: C=CC(=O)N1CCN(c2nc(=O)n(-c3c(C)ccnc3C(C)C)c3nc(-c4c(O)cccc4F)c(F)cc23)C(C)C1 (stereo not given) + CNC(=O)c1ccc(Nc2nc(OC3CCCC3)c3c(-c4ccc5nc(C)oc5c4)c[nH]c3n2)c(OC)c1
Reply text: NO

Inquiry: Moving on to the next molecule: CC(CO)NC(=O)c1cc(-c2ccc(Cl)cc2)nn(-c2cnn(C)c2)c1=O (stereo not given) + CNC(=O)c1ccc(Nc2nc(OC3CCCC3)c3c(-c4ccc5nc(C)oc5c4)c[nH]c3n2)c(OC)c1
Reply text: NO

Inquiry: Note, next up: Nc1ccn(C2OC(CO)C(O)C2(F)F)c(=O)n1 (stereo not given) + CNC(=O)c1ccc(Nc2nc(OC3CCCC3)c3c(-c4ccc5nc(C)oc5c4)c[nH]c3n2)c(OC)c1
Reply text: NO

Inquiry: And the next one, CC(=O)O[C@H]1C(=O)[C@@]2(C)[C@H]([C@H](OC(=O)c3ccccc3)[C@]3(O)C[C@H](OC(=O)[C@H](O)[C@@H](NC(=O)c4ccccc4)c4ccccc4)C(C)=C1C3(C)C)[C@]1(OC(C)=O)CO[C@@H]1C[C@@H]2O + CN1CCN(c2cc(C(=O)Nc3cc4cc(-c5cnn(C)c5)ccc4cn3)ccn2)CC1 ?
Reply text: NO
